System: 624824-186-R-J2-PDC multicell spheroids, viability;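 note: spheroids exposed to agents for 7 days before viability read; 100% = DMSO vehicle treated spheroids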
assay: Anticancer human tumor 624824-186-R-J2-PDC patient-derived colon adenocarcinoma cell line growth inhibition [PI3K]
recorded.conditions: compound 1 µM; stronger effect = lower value
readout.label: viability, T/C

The examples below pair each entry with its known result.
CC(Cn1ccc(-c2ccc(C#N)c(Cl)c2)n1)NC(=O)c1cc(C(C)O)[nH]n1 (stereo not given) = 92.9% [middle of 4 runs]
CC1(C)CCC(Nc2ncc(C(F)(F)F)c(-c3c[nH]c4c(P(C)(C)=O)c(C#N)ccc34)n2)CN1 (stereo not given) = 104% [middle of 4 runs]
CC(Nc1ccc2c(c1)OCCn1cc(N3C(=O)OCC3C(F)F)nc1-2)C(N)=O (stereo not given) = 95.2% [middle of 8 runs]
Cn1nccc1Nc1nccc(-c2ccn(C(CO)c3ccc(Cl)c(F)c3)c(=O)c2)n1 (stereo not given) = 94% [middle of 4 runs]

Here is another molecule to look at.
Prompt: Identify viability, T/C associated with the molecule C=CC(=O)N1CCN(c2nc(=O)n(-c3c(C)ccnc3C(C)C)c3nc(-c4c(O)cccc4F)c(F)cc23)C(C)C1 (stereo not given)
Response: 99.7% [middle of 4 runs]
